All figures here come from ChEMBL document CHEMBL1153932.

system: HeLa; test: Antiproliferative activity against human HeLa cells after 48 hrs by Coulter counting analysis; assay type: functional, cell-based
pIC50: −log10 of the molar value.

compound_structure_string: C=C(Br)C(=O)Nc1ccc(/C=C/C(=O)c2ccc(Cl)cc2)cc1
pIC50: 5.80
--
compound_structure_string: Nc1ccc(C(=O)/C=C/c2ccccc2)cc1
pIC50: 5.11
--
compound_structure_string: COc1cc(/C=C/C(=O)c2ccc(N)cc2)cc(OC)c1
pIC50: 5.10
--
compound_structure_string: Nc1ccc(/C=C/C(=O)c2ccc(F)cc2)cc1
pIC50: 4.40
--
compound_structure_string: C=C(Br)C(=O)Nc1ccc(C(=O)/C=C/c2cccc(OC)c2OC)cc1
pIC50: 6.42
--
compound_structure_string: C=C(Br)C(=O)Nc1ccc(C(=O)/C=C/c2ccccc2)cc1
pIC50: 6.02
--
compound_structure_string: C=C(Br)C(=O)Nc1ccc(C(=O)/C=C/c2cccc(OC)c2)cc1
pIC50: 6.30
--
compound_structure_string: Nc1ccc(/C=C/C(=O)c2cccc3ccccc23)cc1
pIC50: 4.74
--
compound_structure_string: C=C(Br)C(=O)Nc1ccc(/C=C/C(=O)c2cccc(OC)c2)cc1
pIC50: 6.15
--
compound_structure_string: COc1ccc(C(=O)/C=C/c2ccc(N)cc2)cc1
pIC50: 4.01
--
compound_structure_string: C=C(Br)C(=O)Nc1ccc(/C=C/C(=O)c2ccc(F)cc2)cc1
pIC50: 5.85
